Hello, the source for this data is the supplement of paper PMC8728848, in case you need it.

Biological target: GlcNAc(b1-3)GalNAc
Test: glycan array binding signal (z-score within array); higher = stronger binding
Settings: glycan notation: IUPAC condensed, linker removed
This excerpt belongs to a sample that is enriched for the strongest signals.
Hi there, I'd appreciate the recorded glycan array binding signal (z-score) for every entry that follows.
Give bare numbers.

List reported glycan array binding signal (z-score) for each of these binders:
1. MPA (Maclura pomifera) (protein) GVTFDDGAYTGIREINFEYNSETAIGGLRVTYDLNGMPFVAEDHKSFITGFKPVKISLEFPSEYIVEVSGYVGKVEGYTVIRSLTFKTNKQTYGPYGVTNGTPFSLPIENGLIVGFKGSIGYWLDYFSIYLSLNGPNGKSQSIIVGPWGDRVTN
2. Nc3LysM (protein) QFTVPPDTTAEPNTIKTCTWWHVAGSGDSCTSIASTYGITSEQFARWDMETTDSPKNPSVATACKLTVGNSYCIENNFGQDDPPTPSISSSTLIGTATTSTTASTTTGNGISTPTPIQEGMETATTTTSSGNGITTPTPTQAGMETVGNCDRFHLVKSGDQCGTIASTYGITLANFYSWNPAVGTSCQSLWLDTYVCVRTIGFVPPKTTTTTTKKPTSTTSAGGVATPTPTQPGMETVSGCKKFHKGRGNVSTVASGDQCGTIATRYGISLANFYSWNPAVGSSCQTLWLDYYVCVGR
3. CLL-1 (Homo sapiens) (protein) MWIDFFTYSSMSEEVTYADLQFQNSSEMEKIPEIGKFGEKAPPAPSHVWRPAALFLTLLCLLLLIGLGVLASMFHVTLKIEMKKMNKLQNISEELQRNISLQLMSNMNISNKIRNLSTTLQTIATKLCRELYSKEQEHKCKPCPRRWIWHKDSCYFLSDDVQTWQESKMACAAQNASLLKINNKNALEFIKSQSRSYDYWLGLSPEEDSTRGMRVDNIINSSAWVIRNAPDLNNMYCGYINRLYVQYYHCTYKKRMICEKMANPVQLGSTYFREA
4. ECA (Erythrina cristagalli), P83410 (protein) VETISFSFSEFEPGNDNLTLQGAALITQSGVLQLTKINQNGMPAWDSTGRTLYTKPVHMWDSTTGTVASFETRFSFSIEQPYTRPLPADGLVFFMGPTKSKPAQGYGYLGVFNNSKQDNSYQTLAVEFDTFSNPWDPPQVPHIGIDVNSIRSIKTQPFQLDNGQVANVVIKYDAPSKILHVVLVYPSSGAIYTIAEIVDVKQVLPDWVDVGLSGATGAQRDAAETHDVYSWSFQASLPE

## Output
[6.85, 0.056, -0.228, -0.366]

## Input I'd like to know its glycan array binding signal (z-score). The binder in question is LysMD3 (Homo sapiens), Q7Z3D4 (protein) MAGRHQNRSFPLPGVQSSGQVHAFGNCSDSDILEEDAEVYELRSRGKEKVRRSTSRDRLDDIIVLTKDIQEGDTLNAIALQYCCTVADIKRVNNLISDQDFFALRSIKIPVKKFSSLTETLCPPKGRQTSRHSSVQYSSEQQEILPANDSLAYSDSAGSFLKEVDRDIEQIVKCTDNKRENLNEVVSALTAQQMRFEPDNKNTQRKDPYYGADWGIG
## Output -0.639
